System: human recombinant adrenergic α1D receptor (Homo sapiens)
Construct: expressed in transfected cells; host or cells: human embryonic kidney (HEK-293) cells
Sequence (P25100 whole entry): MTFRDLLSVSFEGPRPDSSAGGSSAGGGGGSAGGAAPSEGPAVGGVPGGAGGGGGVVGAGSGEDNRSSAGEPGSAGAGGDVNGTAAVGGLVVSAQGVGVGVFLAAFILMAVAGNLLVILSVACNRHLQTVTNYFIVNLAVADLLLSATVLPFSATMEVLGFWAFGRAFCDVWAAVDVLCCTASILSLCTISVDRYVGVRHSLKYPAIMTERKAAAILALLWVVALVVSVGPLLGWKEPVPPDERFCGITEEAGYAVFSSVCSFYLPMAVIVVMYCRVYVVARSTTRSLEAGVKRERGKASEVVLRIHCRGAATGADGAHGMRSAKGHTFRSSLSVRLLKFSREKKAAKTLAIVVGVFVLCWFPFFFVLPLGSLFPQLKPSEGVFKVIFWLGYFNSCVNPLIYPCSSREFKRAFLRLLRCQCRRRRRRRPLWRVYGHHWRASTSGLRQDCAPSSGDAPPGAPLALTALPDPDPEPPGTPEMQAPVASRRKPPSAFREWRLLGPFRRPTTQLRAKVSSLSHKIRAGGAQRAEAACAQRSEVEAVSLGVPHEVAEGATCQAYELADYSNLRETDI
Assay text: Adrenergic α1D radioligand binding assay
Stated conditions: 1 μM; [3H]Prozosin specific binding; read-out: Percent Inhibition of ligand binding, Adrenergic (1 μM ligand conc.) α1D
Test readout: inhibition at 1 µM (%)

                                    compound  recorded_number
 0  Cc1ccc2c(c1)c1c(n2CCc2ccccn2)CN2CCC1C2 (centres unmarked)               26
 1  Cc1ccc2c(c1)c1c(n2CC(C)(O)c2ccc(F)c(Cl)c2)CN2CCC1C2 (centres unmarked)                1
 2  Cc1ccc2c(c1)c1c(n2CC(=O)N2CCC(C)CC2)CN2CCC1C2 (centres unmarked)               -1
 3  Cc1ccc(C(C)(O)Cn2c3c(c4cc(C)ccc42)C2CCN(C3)C2)cc1 (centres unmarked)               29
 4  Cc1ccc2c(c1)c1c(n2CC(C)(O)c2ccc(Cl)cc2)CN2CCC1C2 (centres unmarked)               24
 5  Cc1ccc2c(c1)c1c(n2CCc2ccc(C(F)(F)F)nc2)CN2CCC1C2 (centres unmarked)               51
 6  Cc1ccc2c(c1)c1c(n2CC(=O)NC2CCCCC2)CN2CCC1C2 (centres unmarked)               18
 7  Cc1ccc2c(c1)c1c(n2CC(O)c2ccc(F)cc2)CN2CCC1C2 (centres unmarked)               34
 8  Cc1ccc2c(c1)c1c(n2CC(=O)N2CCOCC2)CN2CCC1C2 (centres unmarked)                6
 9  Cc1ccc2c(c1)c1c(n2CC(C)(O)c2ccc(Cl)c(Cl)c2)CN2CCC1C2 (centres unmarked)               14
10  COc1ccc(C(O)Cn2c3c(c4cc(C)ccc42)C2CCN(C3)C2)cc1OC (centres unmarked)               20
11  Cc1ccc2c(c1)c1c(n2CC(=O)N(C)C)CN2CCC1C2 (centres unmarked)                9
12  C/C(=C\n1c2c(c3cc(C)ccc31)C1CCN(C2)C1)c1ccc(Cl)cc1 (centres unmarked)               80
13  Cc1ccc2c(c1)c1c(n2CC(=O)c2ccc(F)cc2)CN2CCC1C2 (centres unmarked)               49
